Answer each item with its documented pIC50.
Target: recombinant human MIF (Homo sapiens)
Sequence (P14174 2-115 limits assumed): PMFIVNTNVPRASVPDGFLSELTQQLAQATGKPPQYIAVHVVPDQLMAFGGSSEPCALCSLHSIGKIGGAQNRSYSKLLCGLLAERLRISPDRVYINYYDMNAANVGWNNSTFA
Test: MIF dopachrome tautomerase assay
Conditions: dose-dependent inhibition
pIC50: −log10 of the molar value.

O=C(CC1CC(c2ccc(O)cc2)=NO1)N1CCCC1 (centres unmarked)    ~5.00

In the following, a different molecule is considered.
Task: Which pIC50 value is on record for O=C(CC1CC(c2ccc(O)cc2)=NO1)N1CCOCC1 (centres unmarked) ?
Result: ~5.00

These measurements were taken from patent US20050250826A1.
